What Hypochromic shift was measured for each of the following?
# Organism: Bos taurus
# Protocol Notes: Absorption spectral changes upon addition of 200 uM calf thymus DNA to drug solution at 20 uM in 1 mM Na cacodylate buffer at pH 7.0
# Type: functional
Numeric answer only, unit % assumed.

*Q* Respond only with Hypochromic shift recorded for Cc1cc2n(c(=O)c1C(N)=O)Cc1cc3ccc(OCCN4CCCCC4)cc3nc1-2
*A* 35.8

*Q* Respond only with Hypochromic shift recorded for Cc1cc2n(c(=O)c1C(N)=O)Cc1cc3cc(OCCN4CCCCC4)ccc3nc1-2
*A* 33

*Q* Respond only with Hypochromic shift recorded for Cc1cc2n(c(=O)c1C(N)=O)Cc1cc3ccccc3nc1-2
*A* 2.7

*Q* Respond only with Hypochromic shift recorded for Cc1cc2n(c(=O)c1CN)Cc1cc3ccc(OCCN4CCCCC4)cc3nc1-2
*A* 38.6

*Q* Respond only with Hypochromic shift recorded for Cc1cc2n(c(=O)c1CN)Cc1cc3ccccc3nc1-2
*A* 33.1

*Q* Respond only with Hypochromic shift recorded for Cc1cc2n(c(=O)c1CN)Cc1cc3cc(OCCN4CCCCC4)ccc3nc1-2
*A* 35.3
